Biological target: T1, B7-DC (Mus musculus, UniProt Q9WUL5)
T1 sequence (membrane protein, looked up): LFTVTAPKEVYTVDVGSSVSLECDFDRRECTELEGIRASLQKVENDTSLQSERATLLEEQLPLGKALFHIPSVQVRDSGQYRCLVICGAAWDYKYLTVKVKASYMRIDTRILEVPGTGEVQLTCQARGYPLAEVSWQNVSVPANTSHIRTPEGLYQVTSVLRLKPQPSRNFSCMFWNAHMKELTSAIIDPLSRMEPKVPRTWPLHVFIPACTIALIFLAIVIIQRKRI
Assay: CDS well image, 293T cells transfected with the mouse gene, stained with the mouse fusion protein
propertyMeasured: binding result

B7-2Ig (Fc fusion, also called mouse B7-2Ig fusion protein; not shown: Ig (Fc) part and any linker of the R&D Systems fusion protein) VSVETQAYFNGTAYLPCPFTKAQNISLSELVVFWQDQQKLVLYEHYLGTEKLDSVNAKYLGRTSFDRNNWTLRLHNVQIKDMGSYDCFIQKKPPTGSIILQQTLTELSVIANFSEPEIKLAQNVTGNSGINLTCTSKQGHPKPKKMYFLITNSTNEYGDNMQISQDNVTELFSISNSLSLSFPDGVWHMTVVCVLETESMKISSKPLNFTQEFPSPQTYWK : no binding
ICOSIg (Fc fusion, Mus musculus, UniProt Q9WVS0 21-144, looked up, Ig fusion protein purchased from R&D systems; also called mouse ICOSIg fusion protein) fusion protein: EINGSADHRMFSFHNGGVQISCKYPETVQQLKMRLFREREVLCELTKTKGSGNAVSIKNPMLCLYHLSNNSVSFFLNNPDSSQGSYYFCSLSIFDPPPFQERNLSGGYLHIYESQLCCQLKLWL : no binding
